Test system: SgK110
Conditions: concentration: 1 μM, replicates: in singlicate; n = 1;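 further: KINOMEscan kinase panel screen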
READOUT KIND: %Inh (%)
Answers are plain numbers, in %.

Illustrative cases are given below, each with its answer.
Cc1ccc(Nc2ccnc(Nc3ccc(C)c(F)c3)n2)cc1O.Cl: 0
Cn1cc(-c2ccc3c(c2)CCN3C(=O)Cc2cc(F)cc(F)c2F)c2c(N)ncnc21: 0
N#Cc1cnc2cc(-c3cnc(CNCCN4CCOCC4)s3)ccc2c1Nc1ccc(Oc2ccccc2)cc1: 0
NCCC(NC(=O)c1cc(Br)c(-c2ccnc3[nH]ccc23)s1)c1ccccc1.O=C(O)C(F)(F)F.O=C(O)C(F)(F)F (centres unmarked): 70
Cc1ccc(NC(=O)c2ccc(Cl)c(Cl)c2)cc1-c1ccc(C(=O)Nc2ccncc2)cc1: 4
Cc1ccccc1CC(=O)N1CCc2cc(-c3cn(C)c4ncnc(N)c34)ccc21: 0
CS(=O)(=O)c1cccc(CNc2nc(Nc3ccc4c(c3)CCC(=O)N4)ncc2C(F)(F)F)c1: 0

Read the next record carefully.
Asked: Would you mind telling me what %Inh value was observed for COC(=O)Nc1nc2ccc(Oc3ccc(NC(=O)Nc4cc(C(F)(F)F)ccc4F)cc3)cc2[nH]1.Cl ?
Given back: 55

###

Test system: CSNK1G3
Conditions: concentration: 1 μM, replicates: in singlicate; n = 1
Binarize %Inh at 8%; below is Yes, at or above is No.

Cn1cc(-c2ccc3c(c2)CCN3C(=O)Cc2cc(F)cc(C(F)(F)F)c2)c2c(N)ncnc21 [GSK2635225]: No
CCOc1nccc(-c2c(-c3ccc(F)cc3)ncn2C2CCNCC2)n1 [SB-249175]: Yes
Cc1ccc(-c2ccc3occ(-c4ccc(S(C)=O)cc4)c3c2)nn1 (centres unmarked): Yes

Asked: Hello, is %Inh of the following compound strictly smaller than 8%? NCCC(NC(=O)c1cc(Br)c(-c2ccnc3[nH]ccc23)s1)c1ccccc1.O=C(O)C(F)(F)F.O=C(O)C(F)(F)F (centres unmarked) [GSK1307810]
Given back: No

Asked: Hello, is %Inh of the following compound strictly smaller than 8%? Cc1cc(-c2ccnc(Nc3cccc(C#N)c3)n2)cc(C)c1O [GSK1440913]
Given back: No

Asked: Hello, is %Inh of the following compound strictly smaller than 8%? Cl.Cl.NC(CNC(=O)c1cc(Br)c(-c2ccnc3[nH]ccc23)s1)c1ccccc1 (centres unmarked) [GSK1322949]
Given back: No

Asked: Hello, is %Inh of the following compound strictly smaller than 8%? COc1cc(Nc2ccnc3cc(-c4ccncc4)ccc23)cc(OC)c1OC.Cl [GW494610]
Given back: Yes

###

Hi there, I'd appreciate the recorded %Inh for every entry that follows.
Test system: CAMKK2
Settings: concentration: 1 μM, replicates: in singlicate; n = 1
Form field: result (number plus unit)

Illustrative cases are given below, each with its answer.
O=C(O)C(F)(F)F.O=c1[nH]ccc2nc(N[C@@H]3CCNC3)nc(Nc3ccc4c(c3)S(=O)(=O)CC4)c12 [GSK2181306]: 40%
Cc1cccc(Nc2nc(N[C@H]3CCCC[C@H]3N)ncc2C(N)=O)c1.Cl [GSK986310]: 26%
Fc1cc(Cl)ccc1Nc1ccnc2cc(-c3ccc(CN4CCOCC4)o3)ccc12 [GW560109]: 0%
Cl.Cl.NC(CNC(=O)c1cc(Br)c(-c2ccnc3[nH]ccc23)s1)c1ccccc1 (centres unmarked) [GSK1322949]: 29%
COc1cccc(CC(=O)N2CCc3cc(-c4cn(C)c5ncnc(N)c45)ccc32)c1 [GSK2608899]: 9%

Can you give me %Inh for all of these, one by one?
1. Cc1cccc(Nc2nc(NCCN)ncc2C(N)=O)c1 [GSK1292139]
2. CN(c1ccc(F)c(NC(=O)c2cccc(OC(C)(C)C#N)c2Cl)c1)c1ccc2nc(NC(=O)C3CC3)sc2n1
3. Cc1ccc(NC(=O)c2ccnc(N3CCCCC3)c2)cc1-c1ccc(C(=O)NCC2CC2)cc1 [GW775610]

Given back:
1: 28%; 2: 0%; 3: 0%

###

Hi there, I'd appreciate the recorded %Inh for every entry that follows.
Test system: PAK3
Details: concentration: 1 μM, replicates: in singlicate; n = 1
Give bare numbers, in %.

Illustrative cases are given below, each with its answer.
O=C(Nc1n[nH]c2nc(-c3ccccc3O)ccc12)C1CC1: 0
COc1cc(Nc2ccnc3cc(-c4ccncc4)ccc23)cc(OC)c1OC.Cl: 0
Cc1cccc(Nc2nc(NCCN)ncc2C(N)=O)c1: 16
Nc1ncc(-c2cn[nH]c2)c2scc(-c3ccc4c(c3)CCN4C(=O)Cc3ccccc3)c12: 51

Can you give me %Inh for all of these, one by one?
1. Cc1cccc(Nc2nc(N[C@H]3CCCC[C@H]3N)ncc2C(N)=O)c1.Cl
2. Cl.Cl.NC(CNC(=O)c1cc(Br)c(-c2ccnc3[nH]ccc23)s1)c1ccccc1 (stereo not drawn)

Given back:
55
67

Can you give me %Inh for all of these, one by one?
1. CN(c1ccc(NC(=O)Nc2cccc(Cl)c2)cc1)c1ccnc(N)n1.Cl
2. O=C(Nc1c(F)cccc1F)c1cc(C(=O)c2ccccc2F)c[nH]1
3. NCCC(NC(=O)c1cc(Br)c(-c2ccnc3[nH]ccc23)s1)c1ccccc1.O=C(O)C(F)(F)F.O=C(O)C(F)(F)F (stereo not drawn)
4. Nc1ncnc2scc(-c3ccc(NC(=O)Cc4cc(F)ccc4F)cc3)c12.O=C(O)C(F)(F)F
5. CC(=O)Nc1cn2nc(Oc3cccc(NC(=O)c4cccc(C(F)(F)F)c4)c3)ccc2n1
6. COc1cc(Nc2nccc(N3CCC(NS(=O)(=O)c4ccc(NC(C)=O)cc4)CC3)n2)cc(OC)c1OC
7. CCOc1nccc(-c2c(-c3ccc(F)cc3)ncn2C2CCNCC2)n1

Given back:
1: 6; 2: 0; 3: 76; 4: 46; 5: 16; 6: 13; 7: 0

Can you give me %Inh for all of these, one by one?
1. O=C(Nc1n[nH]c2nc(-c3cccc(O)c3)ccc12)C1CC1
2. Nc1cccc(-c2ccc3c(N)n[nH]c3c2)c1
3. COc1cccc(CC(=O)N2CCc3cc(-c4cn(C)c5ncnc(N)c45)ccc32)c1
4. Cc1cc(-c2ccnc(Nc3cccc(C#N)c3)n2)cc(C)c1O

Given back:
1: 0; 2: 0; 3: 50; 4: 0

Asked: Short answer please: %Inh, PAK3, entry O=C(Nc1n[nH]c2cc(-c3cccs3)ccc12)C1CC1
Given back: 43

###

System: NEK2
Conditions: concentration: 1 μM, replicates: in singlicate; n = 1
Hi there, I'd appreciate the recorded %Inh for every entry that follows.
Answers are plain numbers, in %.

N#Cc1cnc2cc(-c3cnc(CNCCN4CCOCC4)s3)ccc2c1Nc1ccc(Oc2ccccc2)cc1 [GW664114]: 82
COc1cc(Nc2nccc(N3CCC(NC(=O)Nc4ccc5c(c4)OCO5)C3)n2)cc(OC)c1OC (centres unmarked) [GSK1379766]: 20

Can you give me %Inh for all of these, one by one?
1. Cl.Cl.NCC(NC(=O)c1cc(-c2cccnc2)c(-c2ccnc3[nH]ccc23)s1)c1ccccc1 (centres unmarked) [GSK1323434]
2. Nc1ncc(-c2cn[nH]c2)c2scc(-c3ccc4c(c3)CCN4C(=O)Cc3ccccc3)c12 [GSK2593067]

Given back:
1. 1
2. 85

Can you give me %Inh for all of these, one by one?
1. CNc1nccc(-c2ccc3c(N)n[nH]c3c2)n1 [GSK2206003]
2. O=C(O)C(F)(F)F.O=c1[nH]ccc2nc(N[C@@H]3CCNC3)nc(Nc3ccc4c(c3)S(=O)(=O)CC4)c12 [GSK2181306]
3. Cc1ccc(NC(=O)c2cccc(N3CCCCC3)c2)cc1-c1ccc(C(=O)NCC2CC2)cc1 [GSK1917008]
4. NCCC(NC(=O)c1cc(Br)c(-c2ccnc3[nH]ccc23)s1)c1ccccc1.O=C(O)C(F)(F)F.O=C(O)C(F)(F)F (centres unmarked) [GSK1307810]

Given back:
1: 2; 2: 46; 3: 16; 4: 19

###

Test system: ITK
Conditions: concentration: 1 μM, replicates: in singlicate; n = 1
Hi there, I'd appreciate the recorded %Inh for every entry that follows.
Numbers only, in %.

Illustrative cases are given below, each with its answer.
CNc1nccc(-c2ccc3c(N)n[nH]c3c2)n1 [GSK2206003]: 24
COc1ccc(C)c(Nc2ccnc(Nc3ccc(-c4cnc[nH]4)cc3)n2)c1.Cl [GW784041]: 18
Nc1ncc(-c2ccc3nccc(-c4ccncc4)c3c2)cc1S(=O)(=O)N1CCCCC1 [GSK1693850]: 12

Asked: Would you mind telling me what %Inh value was observed for Cl.Cl.NC(CNC(=O)c1cc(Br)c(-c2ccnc3[nH]ccc23)s1)c1ccccc1 (stereo not shown) [GSK1322949] ?
Given back: 31

###

Tested on: p38-delta
Conditions: concentration: 1 μM, replicates: in singlicate; n = 1
Binarize %Inh at 40%; below is satisfied, at or above is not satisfied.

N#Cc1cnc2cc(-c3cnc(CNCCN4CCOCC4)s3)ccc2c1Nc1ccc(Oc2ccccc2)cc1: satisfied
COc1cccc(-c2nc(-c3ccccc3)[nH]c2-c2ccncc2)c1: not satisfied
Nc1ncnc2scc(-c3ccc(NC(=O)Cc4cc(F)ccc4F)cc3)c12.O=C(O)C(F)(F)F: satisfied
Cl.Cl.NCC(NC(=O)c1cc(-c2cccnc2)c(-c2ccnc3[nH]ccc23)s1)c1ccccc1 (centres unmarked): satisfied

Now look at this entry.
Asked: Hello, is %Inh of the following compound strictly smaller than 40%? Fc1cc(Cl)ccc1Nc1ccnc2cc(-c3ccc(CN4CCOCC4)o3)ccc12
Given back: satisfied
